This listing pairs binders with measured Kd.
# tgt: T1, PE9413, C-terminal biotinylated peptide mapping on Exon6 of the SCF molecule (SCF248) (C-terminal biotin)
# T1 construct: also called C-terminal biotinylated PE9413; C-ter PE9413
# T1 peptide: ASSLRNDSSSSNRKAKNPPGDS
# protocolDescription: yeast-displayed scFv, flow cytometry titration of biotinylated peptide

| binder | Kd / nM |
| --- | --- |
| B124P scFv displayed on yeast (scFv, V domains shown, Aga2-anchored, VH-VL orientation; not shown: linker; SV5 tag) VH: QVQLVQSGAELKKPGSSVKISCKSSGYAFSSNWMNWVKQRPGQGLEWIGQIYPEDGDTHYNDKFKGKATLTADKSTSTAYMELSSLTSEDSAVYFCSSSNWVGSYWGQGTLVTVSS VL: DVVMTQSPLSLPVTLGQPASISCKSSQSLLEQDGNTYLNWLQQRPGQSPRRLIYLVDRLDSGVPDRFSGSGSGTDFTLKISRVEAEDVGVYYCWQGTDLPQTFGGGTKVEIK | 3.82 |
| D113P scFv displayed on yeast (scFv, V domains shown, Aga2-anchored, VH-VL orientation; not shown: linker; SV5 tag) VH: QVQLVQSGAELKKPGSSVKISCKSSGYAFSSQWMNWVKQRPGQGLEWIGQIYPGDGDTHMNGKFKGKATLTADKSTSTAYMELSSLTSEDSAVYFCSSSNWVGSYWGQGTLVTVSS VL: DVVMTQSPLSLPVTLGQPASISCKSSQSLLEGDGNTYLNWLQQRPGQSPRRLIYLVDRLDIGVPDRFSGSGSGTDFTLKISRVEAEDVGVYYCWQGTDLPQTFGGGTKVEIK | 8.07 |
| D74P scFv displayed on yeast (scFv, V domains shown, Aga2-anchored, VH-VL orientation; not shown: linker; SV5 tag) VH: QVQLVQSGAELKKPGSSVKISCKSSGYAFSSQWMNWVKQRPGQGLEWIGQIYPGDNDTHYNDKFKGKATLTADKSTSTAYMELSSLTSEDSAVYFCSSSNWVGSYWGQGTLVTVSS VL: DVVMTQSPLSLPVTLGQPASISCKSSQSLLEADGNTYLNWLQQRPGQSPRRLIYLVDRLDSGVPDRFSGSGSGTDFTLKISRVEAEDVGVYYCWQGTDLPQTFGGGTKVEIK | 6.38 |
